- testMethodNotes: Acidic pKa
- Type: physicochemical
- conditionLabel: distilled water
assayMetric: pKa

[I] Nc1nc(C(F)(F)F)cc2c1[nH]c(=O)n2Cc1ccccc1 [Drug 2]
[II] Nc1nc(C(=O)NCC2CC2)nc2c1[nH]c(=O)n2Cc1ccccc1 [Drug 1]
### Prompt Field: entry with larger pKa (options I / II ). Identify your selection by its label.
### Response I
(I: 11.3, II: 7.3)

---

- testMethodNotes: Solubility in volatile organic solvents
- Assay type: physicochemical
- conditionLabel: methanol, organic solvent or mixture; read-out: solubility in methanol
assayMetric: solubility (µg/mL)
I only need the number, in µg/mL, no unit after it.

### Prompt Any idea what its solubility is? The compound is Nc1nc(C(=O)NCC2CC2)nc2c1[nH]c(=O)n2Cc1ccccc1 [Drug 1]
### Response 59

---

- testMethodNotes: Solubility in volatile organic solvents
- Type: physicochemical
- conditionLabel: acetone, organic solvent or mixture; read-out: solubility in acetone
assayMetric: solubility (µg/mL)
I only need the number, in µg/mL, no unit after it.

### Prompt Any idea what its solubility is? The compound is Nc1nc(C(=O)NCC2CC2)nc2c1[nH]c(=O)n2Cc1ccccc1
### Response 25

---

- testMethodNotes: Aqueous solubility of neutral form of drug (MFD or PBS solution, pH 6.5)
- Assay type: physicochemical
- conditionLabel: fassif, MFD solution pH 6.5, read-out: solubility in a pH 6.5 MFD solution
assayMetric: solubility

### Prompt Any idea what its solubility is? The molecule is Nc1nc(C(=O)NCC2CC2)nc2c1[nH]c(=O)n2Cc1ccccc1
### Response ~3 µg/mL

Source: patent US8372836B2
